Origin of the recorded values: ChEMBL document CHEMBL1130605

# Tested Target: Butyrylcholinesterase (Equus caballus) (UniProt Q9N1N9)

# Compound, k2
records = [
    ("CCCCNC(=O)OC12CC3CC(CC(C3)C1)C2", "1.5 10e-3 s-1"),
    ("CCCCNC(=O)OC1C[C@H]2CCC1C2 (stereo in doubt; 2)", "0.92 10e-3 s-1"),
    ("CCCCNC(=O)OC1C[C@H]2CCC1C2 (stereo in doubt; 1)", "2.2 10e-3 s-1"),
    ("CCCCNC(=O)OC1C2CC3CC(C2)CC1C3 (centres undefined)", "1.4 10e-3 s-1"),
]

====

# Tested Target: Butyrylcholinesterase (Equus caballus, UniProt Q9N1N9)
# Test Protocol: Compound was evaluated for its inhibitory concentration against Horse serum Butyrylcholinesterase

# Cpd Smiles, Tested Target, IC50, nM
data = [
    ("CNC(=O)Oc1ccc2c(c1)[C@]1(C)CCN(C)[C@@H]1N2C", "Butyrylcholinesterase (Equus caballus, UniProt Q9N1N9)", 16),
]

====

Recorded Ki values for a group of molecules are listed next.
# Tested Target: Butyrylcholinesterase (Equus caballus)
# Test Protocol: Compound was evaluated for irreversible inhibition of Horse serum Butyrylcholinesterase

# Molecule, Ki
rows = [
    ("CCCCNC(=O)OC12CC3CC(CC(C3)C1)C2", "800 nM"),
    ("CCCCNC(=O)OC1C[C@H]2CCC1C2 (stereo in doubt; 1)", "20 nM"),
    ("CCCCNC(=O)OC1C[C@H]2CCC1C2 (stereo in doubt; 2)", "420 nM"),
    ("CCCCNC(=O)OC1C2CC3CC(C2)CC1C3 (stereo not given)", "800 nM"),
    ("CC[N+](C)(C)c1cccc(O)c1 [EDROPHONIUM BROMIDE]", "340000 nM"),
]

====

# Tested Target: Butyrylcholinesterase (Equus caballus)
# Test Protocol: Tested for kinetic data for the horse serum Butyrylcholinesterase-Catalyzed Hydrolysis of Butyrylthiocholine; 10e-3/M. sec
Ki: recorded values

# Compound, Ki
rows = [
    ("CCCCNC(=O)OC1C[C@H]2CCC1C2 (stereo in doubt; 2)", "2.2 10e3* M-1 s-1"),
    ("CCCCNC(=O)OC1C[C@H]2CCC1C2 (stereo in doubt; 1)", "110 10e3* M-1 s-1"),
    ("CCCCNC(=O)OC12CC3CC(CC(C3)C1)C2", "1.9 10e3* M-1 s-1"),
    ("CCCCNC(=O)OC1C2CC3CC(C2)CC1C3 (centres undefined)", "1.8 10e3* M-1 s-1"),
]
